Measured IC50 (UniProt:P15659)
outcome_measure: IC50

smiles_input	outcome_measure	value_reported
CN1C[C@H]([C@@H]2c3cc(F)ccc3CCc3c(F)cccc32)n2ncc(=O)c(O)c2C1=O	IC50	< 250 nM
CN1C[C@@H]([C@@H](c2ccccc2)c2cccc(OC3CC3)c2)n2ncc(=O)c(O)c2C1=O	IC50	≥ 1000 nM
CC(C)N1C[C@H](C(c2ccccc2)c2ccccc2)n2ncc(=O)c(OC(=O)C3CCOCC3)c2C1=O	IC50	< 250 nM
CN1C[C@H](C2c3ccccc3CCc3ccccc32)n2ncc(=O)c(O)c2C1=O	IC50	< 250 nM

----------
The reader will find reported pIC50 values listed item by item below.
molecular target: UniProt:P15659
pIC50: −log10 of the molar value.

compound	pIC50
CN1CC(C2c3ccccc3COc3ccccc32)n2ncc(=O)c(O)c2C1=O (stereo not shown)	> 6.60
CN1CC(C(c2ccc(Cl)cc2)c2cccc(Cl)c2)n2ncc(=O)c(O)c2C1=O (stereo not shown)	> 6.60
CC#Cc1cn(C(c2ccccc2)C2CN(C)C(=O)c3c(O)c(=O)cnn32)cn1 (stereo not shown)	6.00 to 6.60
CC(C)N1C[C@H](C(c2cccc(F)c2)c2cccc(F)c2)n2ncc(=O)c(O)c2C1=O	> 6.60

----------
Recorded below: pIC50, system Full length EN PA (influenza PA endonuclease) (Influenza A virus).
pIC50: −log10 of the molar value.

compound	target	pIC50
CC(C)N1C[C@H](C(c2ccccc2)c2ccccc2)n2ncc(=O)c(OC(=O)C3CCCC3)c2C1=O	Full length EN PA (influenza PA endonuclease) (Influenza A virus)	> 6.60
CC(C)N1C[C@@H](C(c2ccccc2)c2cccc(Cl)c2)n2ncc(=O)c(O)c2C1=O (single isomer, unassigned) [Compound 73-B]	Full length EN PA (influenza PA endonuclease) (Influenza A virus)	6.00 to 6.60
CN1CC(C(c2ccc(F)cc2)c2ccc(F)cc2)n2ncc(=O)c(O)c2C1=O (stereo not shown)	Full length EN PA (influenza PA endonuclease) (Influenza A virus)	> 6.60
C[C@H](N1C[C@H](C2c3ccccc3CCc3ccccc32)n2ncc(=O)c(O)c2C1=O)C(F)(F)F	Full length EN PA (influenza PA endonuclease) (Influenza A virus)	> 6.60
